Each entry below carries its recorded composite z-score.
biological target: Follistatin (Homo sapiens) (UniProt P19883); experiment: follistatin binders on small-molecule microarrays, primary screen, biochemical, small-molecule microarray, 635/667 nm fluorescence (AID 1132); conditions: FST binding, 635 nm fluorescence, higher = more signal
Sequence (P19883 whole entry, looked up): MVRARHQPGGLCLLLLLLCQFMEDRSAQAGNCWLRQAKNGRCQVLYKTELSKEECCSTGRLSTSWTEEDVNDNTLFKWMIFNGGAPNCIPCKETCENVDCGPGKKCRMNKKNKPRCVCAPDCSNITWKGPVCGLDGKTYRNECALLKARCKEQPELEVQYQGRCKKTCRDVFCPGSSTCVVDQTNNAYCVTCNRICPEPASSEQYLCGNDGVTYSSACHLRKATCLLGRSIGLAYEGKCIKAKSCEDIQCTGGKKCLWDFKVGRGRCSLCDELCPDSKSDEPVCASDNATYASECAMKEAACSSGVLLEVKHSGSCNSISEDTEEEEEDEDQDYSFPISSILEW

compound: C=CCC(OC(C)=O)[C@@H]1[C@@H](N(Cc2cc3ccccc3o2)C(=O)c2ccc(C)cc2)c2cc(OCCCO)ccc2N1C(=O)Cc1ccc(OC)cc1 (some centres not stated)
target.under.test: Follistatin (Homo sapiens) (UniProt P19883)
composite z-score: 0.924
--
compound: COCCOC(=O)N1C(=O)[C@@]2(c3cc(C#CC4=CCCCC4)ccc31)[C@H](c1ccccc1OCCO)N1[C@H](c3ccccc3)[C@H](c3ccccc3)OC(=O)[C@H]1[C@@H]2C(=O)Nc1nc2ccccc2s1
target.under.test: Follistatin (Homo sapiens) (UniProt P19883)
composite z-score: 1.19
--
compound: COc1ccc(NC(=O)O[C@H]2[C@H](OC(=O)Nc3ccccc3)[C@@H](OC(=O)Nc3ccccc3)[C@@H](OC)O[C@@H]2CO)cc1
target.under.test: Follistatin (Homo sapiens) (UniProt P19883)
composite z-score: 1.34
--
compound: CN1C(=O)C2C=CC(C(O)C#Cc3ccccc3)N(Nc3ccccc3)C2C1=O (configuration not stated)
target.under.test: Follistatin (Homo sapiens) (UniProt P19883)
composite z-score: 1.18
--
compound: CN(C)CCCCNC(=O)[C@@H]1C[C@@H]2C(=O)N[C@@H](Cc3ccccc3)C(=O)N2[C@@H]1c1cccc(OCCO)c1
target.under.test: Follistatin (Homo sapiens) (UniProt P19883)
composite z-score: 1.33
--
compound: C=CCN1C(=O)[C@@]2(CCS(=O)(=O)c3ccccc3)N=C(c3ccc(OCCCO)cc3)O[C@H]2c2ccccc21
target.under.test: Follistatin (Homo sapiens) (UniProt P19883)
composite z-score: 1.45
--
compound: C=C(COC)/C(=C/C[C@H](OC(C)=O)c1ccc(OCCO)cc1)c1cc(C(=O)OC)ccc1OC
target.under.test: Follistatin (Homo sapiens) (UniProt P19883)
composite z-score: 1.35

----------
assay: E. coli growth modulation, two-sided OD650, primary screen, E. coli filamentation project, strain DRC41, 24 h (AID 1093); settings: OD650, 24 h, higher = more signal, called active from +8 up or from −8 down;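 further: MC1000 strain lacking acrAB efflux and sulA so SOS filamentation is blocked; test concentration not given here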
Param threshold (-0.5) applies to z-score; output y when value >= threshold, n when value < threshold.

molecule: COC(=O)c1ccc([C@H](NC(=O)c2ccco2)[C@]2(C)C[C@H]2C2CCCCC2)cc1
qualitative.label: n
//
molecule: O=C1N(Cc2ccccc2)c2ccccc2[C@@H]2OC(c3ccc(OCCCO)cc3)=N[C@]12Cc1ccccc1
qualitative.label: y
//
molecule: C=CCC(OC(C)=O)[C@@H]1[C@@H](N(Cc2cc3ccccc3o2)C(=O)c2ccc(-c3ccccc3)cc2)c2cc(OCCCO)ccc2N1C(=O)c1ccc2ccccc2c1 (stereo partly specified)
qualitative.label: n
//
molecule: C=C(/C(=C/C[C@H](OC(=O)c1ccncc1)c1ccc(CO)o1)c1cc(C(=O)OC)ccc1OC)C(C)C
qualitative.label: y
//
molecule: COc1cccc(/C=C/C=O)c1
qualitative.label: y
//
molecule: O=C1O[C@H](c2ccccc2)[C@H](c2ccccc2)N2[C@H]1[C@@H](C(=O)Nc1nc3ccccc3s1)[C@]1(C(=O)Nc3ccccc31)[C@H]2c1ccc(OCCO)cc1
qualitative.label: y
//
molecule: [N-]=[N+]=Nc1ccccc1C[C@]1(C(N)=O)N=C(c2ccc(OCCCO)cc2)O[C@H]1c1ccccc1N=[N+]=[N-]
qualitative.label: y
//
molecule: C=C[C@@H](COC(C)=O)N(C(=O)OC(C)(C)C)S(=O)(=O)c1ccc(Br)cc1
qualitative.label: y
//
molecule: CCOC(=O)C1=CC[C@@H](c2ccccc2C(F)(F)F)N(S(=O)(=O)c2ccc(C)cc2)[C@H]1c1ccc(C#N)cc1
qualitative.label: y
//
molecule: CN1C(=O)C2C=CC(C(O)c3ccccn3)N(N(c3ccccc3)c3ccccc3)C2C1=O (stereo unspecified)
qualitative.label: n
//
molecule: CCOC(=O)C1=C[C@@H](c2ccccc2)N(S(=O)(=O)c2ccc(C)cc2)[C@H]1c1ccccc1Cl
qualitative.label: n
//
molecule: C[C@@H]1NC(=O)[C@@]23C(=O)N[C@@H](Cc4ccccc4)C2[C@H](C)[C@@]2(C)O[C@H]2C3/C=C/C/C=C\CNC(=O)[C@@H]2CCCN2C1=O (stereo partly specified)
qualitative.label: n
//
molecule: CC(C)(C)N1CC=CC23O[C@@H]4C=CCCOC(=O)C4[C@H]2C(=O)N(CCO)[C@@H]3C1=O (stereo partly specified)
qualitative.label: y
//
molecule: COCCOC(=O)N1C(=O)[C@@]2(c3cc(C#Cc4ccc(OC)cc4)ccc31)[C@H](c1ccc(O)cc1)N1[C@H](c3ccccc3)[C@H](c3ccccc3)OC(=O)[C@H]1[C@@H]2C(=O)N1CCCCCCC1
qualitative.label: y
//
molecule: C=CCC(OC(C)=O)[C@@H]1[C@@H](N(Cc2ccc(-c3ccccc3)cc2)C(=O)Cc2ccc(F)cc2)c2cc(OCCCO)ccc2N1C(=O)Cc1ccc(OC)cc1 (stereo partly specified)
qualitative.label: y
//
molecule: CC(C)Cc1ccc(CN2CC[C@@H](NC(=O)Nc3ccccc3)C2)cc1
qualitative.label: n
